molecular target: Muscarinic acetylcholine receptor M3 (Homo sapiens, UniProt P20309); also: assay procedure not described here
Sequence (P20309 whole entry): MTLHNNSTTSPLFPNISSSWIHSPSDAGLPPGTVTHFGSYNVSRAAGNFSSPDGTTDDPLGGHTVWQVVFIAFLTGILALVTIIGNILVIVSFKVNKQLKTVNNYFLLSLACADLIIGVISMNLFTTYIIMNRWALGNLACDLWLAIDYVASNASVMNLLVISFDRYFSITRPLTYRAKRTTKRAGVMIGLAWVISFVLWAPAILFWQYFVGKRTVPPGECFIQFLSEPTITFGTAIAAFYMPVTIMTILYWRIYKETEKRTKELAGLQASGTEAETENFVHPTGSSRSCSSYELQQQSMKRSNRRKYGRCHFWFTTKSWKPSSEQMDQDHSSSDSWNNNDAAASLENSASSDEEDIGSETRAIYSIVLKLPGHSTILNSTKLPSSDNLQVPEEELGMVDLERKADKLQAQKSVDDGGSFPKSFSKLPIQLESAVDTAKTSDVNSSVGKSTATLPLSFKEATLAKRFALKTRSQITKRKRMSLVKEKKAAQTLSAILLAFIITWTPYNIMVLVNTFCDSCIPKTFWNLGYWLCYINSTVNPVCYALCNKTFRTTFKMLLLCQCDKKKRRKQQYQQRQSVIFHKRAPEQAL
Documented AC50 across a set of compounds

- compound: "Nc1ccc(/N=N/c2ccccc2)c(N)n1"
  AC50: "3.6 µM"
- compound: "CC(C)[N+](C)(CCC(C(N)=O)(c1ccccc1)c1ccccc1)C(C)C [ISOPROPAMIDE]"
  AC50: "0.0056 µM"
- compound: "CC(=O)N(CC(O)CO)c1c(I)c(C(=O)NCC(O)CO)c(I)c(C(=O)NCC(O)CO)c1I (configuration not stated) [IOHEXOL]"
  AC50: "> 30 µM"
- compound: "CC(C)C(=O)OCC(=O)[C@@]12O[C@H](C3CCCCC3)O[C@@H]1C[C@H]1[C@@H]3CCC4=CC(=O)C=C[C@]4(C)[C@H]3[C@@H](O)C[C@@]12C [CICLESONIDE]"
  AC50: "> 30 µM"
- compound: "COCC1=C(C(=O)OC(C)OC(=O)OC(C)C)N2C(=O)[C@@H](NC(=O)/C(=N\\OC)c3csc(N)n3)[C@H]2SC1 (some centres not stated)"
  AC50: "> 30 µM"
- compound: "Cc1ccc(-c2nc3ccc(C)cn3c2CC(=O)N(C)C)cc1"
  AC50: "> 30 µM"
- compound: "O=C(O)CCn1c2c(c3ccccc31)C[C@H](NS(=O)(=O)c1ccc(F)cc1)CC2"
  AC50: "> 30 µM"
- compound: "N/N=c1/cc2c(n[nH]1)CCN(C(=O)c1ccccc1)C2"
  AC50: "> 30 µM"
- compound: "CO/N=C(\\C(=O)N[C@@H]1C(=O)N2C(C(=O)OCOC(=O)C(C)(C)C)=C(C)CS[C@H]12)c1csc(N)n1"
  AC50: "> 30 µM"
- compound: "CN1C(=O)CC(C)(c2ccccc2)C1=O (configuration not stated) [METHSUXIMIDE]"
  AC50: "> 30 µM"
- compound: "CCC1(C2=CCCCCC2)C(=O)NC(=O)NC1=O"
  AC50: "> 30 µM"
- compound: "CN1C(=O)N(C)C2C1N(C)C(=O)N2C (configuration not stated)"
  AC50: "> 30 µM"
- compound: "CCCC(CCC)C(=O)O[C@H]1C[C@H]2CC[C@@H](C1)[N+]2(C)C"
  AC50: "0.036 µM"
- compound: "COC(=O)[C@@H]1CC2=CC(=O)CC[C@]2(C)[C@@]23O[C@@H]2C[C@@]2(C)[C@@H](CC[C@@]24CCC(=O)O4)[C@H]13"
  AC50: "> 30 µM"
- compound: "CC1=CC(=O)c2ccccc2C1=O"
  AC50: "> 30 µM"
- compound: "COc1cc2c(cc1OC)C(=O)C(CC1CCN(Cc3ccccc3)CC1)C2 (configuration not stated)"
  AC50: "> 30 µM"
- compound: "Cc1c(Cl)cccc1Nc1ccccc1C(=O)O"
  AC50: "> 30 µM"
